# Tested on: brains, heart, liver, muscle, and DRG of the NHPs
# test_protocol: Maturation of TTM-001 and TTM-002 capsids, NGS enrichment in NHP tissues
# Format: in vivo
# condition_info: NGS fold-enrichment; muscle; NHP; relative to AAV9
# Description: This Example describes maturation of the AAV9 capsid variants, TTM-001 (SEQ ID NO: 981 (amino acid) and 983 (DNA), comprising SEQ ID NO: 941 (encoded by SEQ ID NO: 942)) and TTM-002 (SEQ ID NO: 982 (amino acid) and 984 (DNA), comprising SEQ ID NO: […] (encoded by SEQ ID NO: 944)) in NHPs to further enhance their transduction and biodistribution in the central nervous system as well as other tissues, and evolve the AAV capsid variants to provide further cross-species compatibility. […]
Give Fold Enrichment relative to AAV9, Muscle (NHP) for every item shown.
Numbers only, in fold.

# annotated cases, reported Fold Enrichment relative to AAV9, Muscle (NHP) shown
q: Report measured Fold Enrichment relative to AAV9, Muscle (NHP); entry is KTINGSGSPHSKCTSQQT
a: 2.353

q: Using known records, supply Fold Enrichment relative to AAV9, Muscle (NHP) for KTINRYSSPHSKAQNQQT
a: 0.000

q: Could you please provide reported Fold Enrichment relative to AAV9, Muscle (NHP) for KTINGSGSPHSVFENQQT ? Thanks!
a: 0.000

Here is another sequence to look at.
q: Fill in Fold Enrichment relative to AAV9, Muscle (NHP) for record KTINGSGSPHSKAQFCLT
a: 0.000

* * *

# System: brains, heart, liver, muscle, and DRG of the NHPs
# test_protocol: Maturation of TTM-001 and TTM-002 capsids, NGS enrichment in NHP tissues
# Assay type: in vivo
# condition_info: NGS fold-enrichment, RNA, brain of NHPs, relative to AAV9 control
# Description: This Example describes maturation of the AAV9 capsid variants, TTM-001 (SEQ ID NO: 981 (amino acid) and 983 (DNA), comprising SEQ ID NO: 941 (encoded by SEQ ID NO: 942)) and TTM-002 (SEQ ID NO: 982 (amino acid) and 984 (DNA), comprising SEQ ID NO: […] (encoded by SEQ ID NO: 944)) in NHPs to further enhance their transduction and biodistribution in the central nervous system as well as other tissues, and evolve the AAV capsid variants to provide further cross-species compatibility. […]
Give measured Fold Enrichment relative to AAV9, Brain (NHP) for each item. Keep answers brief.
Answers are plain numbers, in fold.

q: Report measured Fold Enrichment relative to AAV9, Brain (NHP); entry is KTITGSGSPHSKAQTQLT
a: 60.846

q: Quote Fold Enrichment relative to AAV9, Brain (NHP) reported for KVINGSGSPHSKGQNQQT (peptide inserted in AAV capsid) please.
a: 60.001

q: Give reported Fold Enrichment relative to AAV9, Brain (NHP) value for KTINGSGSPHSKAQPPAT
a: 63.510

q: Name the recorded Fold Enrichment relative to AAV9, Brain (NHP) of the item KTVNGSGSPHSKARDQQT in your answer.
a: 124.789

q: # return recorded Fold Enrichment relative to AAV9, Brain (NHP) for input KTEKASGSPHSKAQNQQT
a: 80.285

q: Let me know recorded Fold Enrichment relative to AAV9, Brain (NHP) for KTVNGNGSPHSKAQNQHT , thanks.
a: 78.849

Hi team, please reply with Fold Enrichment relative to AAV9, Brain (NHP) for each item in this list.
1. KTEKGSGSPHSKAQNQQT
2. KAINGSGSPHSKAQNLAT
3. KTINGSGSPHSKAQPAKT

a:
1: 105.614; 2: 101.954; 3: 111.472

# map each sequence to its Fold Enrichment relative to AAV9, Brain (NHP)
1. KTINGLGSPHSKSQNQQT
2. KTEKISGSPHSKAQNQQT
3. KTINGSGSPHSKAQIPPT
4. KTVNGSGSPHSKSQNQLT
5. KTINGSGSPHSKSQSQQI

a:
62.170
116.603
61.258
101.327
61.870

Below are 2 sequences. Give each one its Fold Enrichment relative to AAV9, Brain (NHP).
1. KTDKSSGSPHSKAQNQQT
2. KESDGSGSPHSKAQNQQT

a:
[79.470, 63.766]

* * *

Consider the following sequences; for each one, report its Fold enrichment over TTM-001.
# Test system: brain
# test_protocol: Maturation of TTM-001 capsid, NGS enrichment in brain of CD-1 Outbred mice
# Format: in vivo
# condition_info: NGS fold-enrichment of TTM-001 matured AAV capsid variants in the brain of CD-1 Outbred mice; intravenous 1.0×10^12 VG/dose; 14 days in life; RNA; relative to non-matured TTM-001 control
Numbers only, in fold.

q: Using known records, supply Fold enrichment over TTM-001 for KTINGSGSPHSKSRRQQT
a: 4.175

q: Identify measured Fold enrichment over TTM-001 corresponding to KTINGSCSPHPLAQNQQT
a: 3.086

q: Fill in Fold enrichment over TTM-001 for record KTINGSRSPHRSAQNQQT (peptide inserted in AAV capsid)
a: 2.536

q: Note Fold enrichment over TTM-001 for the sequence shown: KTINGSLSPHSWAQNQQT
a: 2.885

List Fold enrichment over TTM-001 for every entry below, keeping the order given.
1. KTINGSGSPHEHNQNQQT
2. KTINGSGSPHRFKQNQQT
3. KTINGSGSPHSKAQTNRT
4. KTINGSGSPHLSWQNQQT

a:
1: 2.199; 2: 2.223; 3: 2.510; 4: 3.047

List the reported Fold enrichment over TTM-001 of each sequence below.
1. KTINGSGSPHSKQRSQQT
2. KTINGSGSPHSKARLAQT
3. KTINGSGSPHSLFANQQT
4. KGHEGSGSPHSKAQNQQT

a:
2.395
2.007
2.365
2.151

Please go through the list and note Fold enrichment over TTM-001 for each sequence.
1. KTINGSHSPHRKAQNQQT
2. KTINGSGSPHSKARYSQT
3. KTINGSASPHVFAQNQQT
4. KTINGSGSPHSKAQNRMR

a:
2.028
2.369
2.186
2.804

* * *

# Test system: brains, heart, liver, muscle, and DRG of the NHPs
# test_protocol: Maturation of TTM-001 and TTM-002 capsids, NGS enrichment in NHP tissues
# Type: in vivo
# condition_info: NGS fold-enrichment, NHP DRG, relative to AAV9 control
Task for the reader: assign each of the following sequences its reported Fold Enrichment relative to AAV9, DRG (NHP).
Answers are plain numbers, in fold.

Consider the reported Fold Enrichment relative to AAV9, DRG (NHP) for these sequences:
q: Please look at KTINGHGSPHSKAQNPQT and tell me its recorded Fold Enrichment relative to AAV9, DRG (NHP) on brains, heart, liver, muscle, and DRG of the NHPs.
a: 0.000

q: Write down measured Fold Enrichment relative to AAV9, DRG (NHP) (brains, heart, liver, muscle, and DRG of the NHPs) for this sequence. KTINGSGSPHTKAQNPPT
a: 0.000

q: Fill in Fold Enrichment relative to AAV9, DRG (NHP) for KTINGHDSPHKSGRTQET tested with brains, heart, liver, muscle, and DRG of the NHPs.
a: 0.000

q: Report the value of Fold Enrichment relative to AAV9, DRG (NHP) obtained on brains, heart, liver, muscle, and DRG of the NHPs for KTVNRNGSPHSKAQNQQT .
a: 0.000

q: Report measured Fold Enrichment relative to AAV9, DRG (NHP) on brains, heart, liver, muscle, and DRG of the NHPs; entry: KTSSGSGSPHSKAQYQQT
a: 0.000

q: Answer with Fold Enrichment relative to AAV9, DRG (NHP) of KTIEGHDSPHKSGRNQQT measured for brains, heart, liver, muscle, and DRG of the NHPs.
a: 0.000

Take each entry in turn and give its Fold Enrichment relative to AAV9, DRG (NHP).
1. KTESGHDSPHKSGQNQQT
2. KTIDGHDSPHKSGRNQQI
3. KAINGHDSPHKSGPRQQT
4. KTERTSGSPHSKAQNQQT
5. KTINGSGSPHSKAQHRIT
6. KAINGHDSPHKSAQSQQT

a:
1: 0.000; 2: 0.000; 3: 0.000; 4: 0.000; 5: 0.105; 6: 0.146

Look up Fold Enrichment relative to AAV9, DRG (NHP) for the entries below, preserving their order.
1. KTINGHDSPHKSVQNHLN
2. KTEKVSGSPHSKAQNQQT
3. KTENVSGSPHSKAQNQQT
4. KAEMGSGSPHSKAQNQQT

a:
1: 0.000; 2: 0.000; 3: 0.000; 4: 0.000

q: Give the observed Fold Enrichment relative to AAV9, DRG (NHP) of KAINGSGSPHSKAQDQET for brains, heart, liver, muscle, and DRG of the NHPs.
a: 0.000
